Biological target: hERG (KCNH2) (Homo sapiens, UniProt Q12809)
Sequence (Q12809 whole entry): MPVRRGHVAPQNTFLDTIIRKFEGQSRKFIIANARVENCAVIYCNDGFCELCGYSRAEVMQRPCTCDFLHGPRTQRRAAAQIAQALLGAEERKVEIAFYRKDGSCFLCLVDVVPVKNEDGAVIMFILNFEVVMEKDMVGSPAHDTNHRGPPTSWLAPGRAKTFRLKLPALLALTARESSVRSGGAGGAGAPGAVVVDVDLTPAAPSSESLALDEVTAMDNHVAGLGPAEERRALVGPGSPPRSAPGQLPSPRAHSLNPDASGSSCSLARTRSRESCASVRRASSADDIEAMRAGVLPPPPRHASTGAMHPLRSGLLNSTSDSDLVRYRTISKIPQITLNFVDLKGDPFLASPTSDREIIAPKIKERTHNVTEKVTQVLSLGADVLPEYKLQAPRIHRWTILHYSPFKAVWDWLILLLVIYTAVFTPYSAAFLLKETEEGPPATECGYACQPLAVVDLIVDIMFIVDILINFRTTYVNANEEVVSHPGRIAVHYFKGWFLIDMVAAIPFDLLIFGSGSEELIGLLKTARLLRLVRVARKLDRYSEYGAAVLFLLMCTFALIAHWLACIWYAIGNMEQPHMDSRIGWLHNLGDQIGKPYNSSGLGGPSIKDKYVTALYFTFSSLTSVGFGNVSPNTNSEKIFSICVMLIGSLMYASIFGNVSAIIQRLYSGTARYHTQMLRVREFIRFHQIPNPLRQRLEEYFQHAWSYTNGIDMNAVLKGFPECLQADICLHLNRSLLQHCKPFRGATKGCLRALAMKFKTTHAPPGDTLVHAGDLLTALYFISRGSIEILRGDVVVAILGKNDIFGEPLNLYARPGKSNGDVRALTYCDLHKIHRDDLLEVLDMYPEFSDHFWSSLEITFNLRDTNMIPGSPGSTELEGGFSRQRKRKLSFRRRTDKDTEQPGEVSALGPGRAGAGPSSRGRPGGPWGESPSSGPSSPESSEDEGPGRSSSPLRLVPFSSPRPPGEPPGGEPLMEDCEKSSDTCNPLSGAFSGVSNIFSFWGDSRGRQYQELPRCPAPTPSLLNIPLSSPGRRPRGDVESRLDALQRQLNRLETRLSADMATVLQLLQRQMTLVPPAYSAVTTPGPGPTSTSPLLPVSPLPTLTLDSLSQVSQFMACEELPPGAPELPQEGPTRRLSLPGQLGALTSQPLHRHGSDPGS
Assay: Inhibition of human ERG expressed in HEK293 cells assessed as decrease in channel current at 30 uM after 3 mins at -80 mV holding potential by automated patch-clamp electrophysiology assay
Format: cell-based
Conditions: HEK293 cells that express hERG
Quantity Name: inhibition at 0.05 h, 30 µM (%)

CC(=O)O[C@@H]1[C@H]2[C@@H](OC(=O)c3ccccc3)[C@@H](C)C[C@]2(OC(C)=O)[C@@H](OC(C)=O)[C@]2(C)OC[C@]13C(=O)C=C[C@H](C(C)(C)OC(C)=O)[C@@H]23 : 39
CCC(=O)O[C@@H]1[C@@H]2[C@@H](OC(C)=O)[C@@]34CO[C@@](C)([C@H](OC(C)=O)[C@@]2(OC(C)=O)C[C@]1(C)O)[C@@H]3[C@@H]1[C@@H](C[C@]1(C)OC(C)=O)[C@@H](OC(=O)C(C)CC)C4=O (some centres undefined) : 33
CC(=O)OC[C@@]12[C@H](OC(=O)c3ccccc3)[C@H]3[C@@H](OC(=O)C(C)C)[C@@H](C)C[C@]3(OC(C)=O)C(=O)[C@@]3(C)OC(C)(C)[C@@H](C=C[C@H]1OC(C)=O)[C@H]23 : 43
CC(=O)O[C@@H]1[C@H]2[C@@H](OC(=O)C(C)C)[C@@](C)(OC(=O)c3ccccc3)C[C@]2(OC(C)=O)[C@@H](OC(C)=O)[C@]2(C)OC[C@]13C(=O)[C@H](OC(=O)C(C)C)[C@@H]1C[C@](C)(OC(C)=O)[C@@H]1[C@@H]23 : 53
CCCCCC(=O)O[C@@H]1[C@@H]2[C@@H](O)[C@]34CC[C@H]5[C@@H]([C@H]3[C@@](C)(OC4)[C@H](OC(C)=O)[C@@]2(O)C[C@@H]1C)C5(C)C : 55
CCC(C)C(=O)O[C@H]1C(=O)[C@@]23CO[C@@](C)([C@H](OC(C)=O)[C@@]4(OC(C)=O)C[C@](C)(O)[C@H](OC(=O)C(C)C)[C@@H]4[C@H]2OC(C)=O)[C@@H]3[C@@H]2[C@H]1C[C@]2(C)OC(C)=O (some centres undefined) : 32
CC(=O)O[C@@H]1[C@H]2[C@@H](OC(=O)C(C)C)[C@@H](C)C[C@]2(OC(C)=O)[C@@H](OC(C)=O)[C@]2(C)OC[C@]13C(=O)[C@H](OC(C)=O)[C@@H]1C[C@](C)(OC(C)=O)[C@@H]1[C@@H]23 : 23
CCC(=O)O[C@@H]1[C@@H]2[C@@H](OC(C)=O)[C@@]34CO[C@@](C)([C@H](OC(C)=O)[C@@]2(OC(C)=O)C[C@@H]1C)[C@@H]3[C@@H](C(C)(C)OC(C)=O)C=CC4=O : 18
CC(=O)O[C@@H]1[C@H]2[C@@H](OC(=O)C(C)C)[C@@H](C)C[C@]2(OC(C)=O)[C@@H](OC(C)=O)[C@]2(C)OC[C@]13C(=O)C=C[C@H](C(C)(C)OC(C)=O)[C@@H]23 : 16

---

Target: Kir3.1/Kir3.4 (Homo sapiens) (UniProt P48549+P48544)
Test: Inhibition of GTPgammaS-induced activation of GIRK1/4 (unknown origin) expressed in HEK293 cells assessed as decrease in channel current at 1 uM after 2 mins at -40 mV holding potential by automated patch-clamp electrophysiology assay
Type: cell-based
Quantity Name: inhibition (%)

CCC(C)C(=O)O[C@H]1C(=O)[C@@]23CO[C@@](C)([C@H](OC(C)=O)[C@@]4(OC(C)=O)C[C@](C)(OC(=O)c5ccccc5)[C@H](OC(=O)C(C)C)[C@@H]4[C@H]2OC(C)=O)[C@@H]3[C@@H]2[C@H]1C[C@]2(C)OC(C)=O (some centres undefined) : 26
CCC(=O)O[C@@H]1[C@@H]2[C@@H](OC(C)=O)[C@@]34CO[C@@](C)([C@H](OC(C)=O)[C@@]2(O)C[C@@H]1C)[C@@H]3[C@@H]1[C@@H](C[C@]1(C)OC(C)=O)[C@@H](OC(=O)c1ccccc1)C4=O : 19
CC(=O)O[C@@H]1[C@H]2[C@@H](OC(=O)C(C)C)[C@@H](C)C[C@]2(OC(C)=O)[C@@H](OC(C)=O)[C@]2(C)OC[C@]13C(=O)[C@H](OC(C)=O)[C@@H]1C[C@](C)(OC(C)=O)[C@@H]1[C@@H]23 : 28
CC(=O)OC[C@@]12[C@H](OC(=O)c3ccccc3)[C@H]3[C@@H](OC(=O)C(C)C)[C@@H](C)C[C@]3(OC(C)=O)C(=O)[C@@]3(C)OC(C)(C)[C@@H](C=C[C@H]1OC(C)=O)[C@H]23 : 26
